system: CAMK2A; conditions: concentration: 1 μM, replicates: in singlicate; n = 1;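 further: KINOMEscan kinase panel screen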
Answer each item with its documented %Inh.
Reply with the number and its unit after it.

I am curious: what %Inh value has been reported for Fc1ccc(-c2ncn(CCCNCc3ccccc3)c2-c2ccncc2)cc1 ?
21%

I am curious: what %Inh value has been reported for CS(=O)(=O)CCNCc1nc(-c2ccc3ncnc(Nc4ccc(OCc5cccc(F)c5)c(Cl)c4)c3c2)cs1.Cl ?
0%

I am curious: what %Inh value has been reported for Cl.c1ccc(Cn2ccc3cc(Nc4ncnc5ccccc45)ccc32)cc1 ?
9%

I am curious: what %Inh value has been reported for CS(=O)(=O)CCNCc1ccc(-c2ccc3ncnc(Nc4ccc(OCc5ccccc5)c(Cl)c4)c3c2)o1.Cl ?
0%

I am curious: what %Inh value has been reported for COc1cc2c(Nc3cccc(NC(=O)c4ccccc4)c3)ncnc2cc1OCCCN1CCOCC1 ?
0%

I am curious: what %Inh value has been reported for O=C(c1ccc(-c2cc(-c3c[nH]nc3-c3ccccn3)ccn2)cc1)N1CCCC1 ?
1%

I am curious: what %Inh value has been reported for COc1ccc(Nc2nccc(N3CCC(NC(=O)Nc4ccc5c(c4)OCO5)C3)n2)cc1 (stereo not drawn) ?
0%

I am curious: what %Inh value has been reported for CC(=O)Nc1n[nH]c2ncc(-c3ccccc3)cc12 ?
4%

I am curious: what %Inh value has been reported for Nc1n[nH]c2nnc(-c3ccccc3)cc12 ?
0%

====

test system: JNK1; construct: gene MAPK8; settings: concentration: 1 μM, replicates: in singlicate; n = 1
Please assign not met whenever %Inh is at or above 30%, and met whenever it is below.

I'd appreciate it if you could check whether Cn1cc(-c2ccc3c(c2)CCN3C(=O)Cc2cccc(C(F)(F)F)c2)c2c(N)ncnc21 [GSK2606414] has %Inh smaller than 30%.
met

I'd appreciate it if you could check whether c1ccc(-c2ccc3c(-c4ccnc(Nc5ccc6c(c5)OCCO6)n4)cnn3n2)cc1 [GW818941] has %Inh smaller than 30%.
met

I'd appreciate it if you could check whether O=C(NCCCN1CCCC1=O)c1cnc(NCc2cc(Cl)ccc2Cl)nc1NC1CCNCC1 has %Inh smaller than 30%.
met

I'd appreciate it if you could check whether C[C@@H]1CCN(C(=O)CO)C[C@@H]1N(C)c1ncnc2[nH]ccc12 has %Inh smaller than 30%.
met

I'd appreciate it if you could check whether O=C(Nc1n[nH]c2nc(-c3ccco3)c(Br)cc12)c1ccc(CN2CCCC2)cc1.O=C(O)[C@H](O)[C@@H](O)C(=O)O [SB-742352] has %Inh smaller than 30%.
met

I'd appreciate it if you could check whether Fc1cccc(COc2ccc(Nc3ncnc4sc(-c5ccc[nH]5)cc34)cc2Cl)c1 [GW707818] has %Inh smaller than 30%.
met

I'd appreciate it if you could check whether Cl.O=S(=O)(c1cccc(F)c1)c1ccc(Nc2ncnc3cc(Br)sc23)cc1Cl [GSK306886] has %Inh smaller than 30%.
met

I'd appreciate it if you could check whether OCCOCCn1ccc2ncnc(Nc3ccc(Oc4cccc(Cl)c4)c(Cl)c3)c21 has %Inh smaller than 30%.
met

I'd appreciate it if you could check whether Nc1n[nH]c2nnc(-c3ccccc3)cc12 [SB-517389] has %Inh smaller than 30%.
met

I'd appreciate it if you could check whether Cl.Fc1ccccc1COc1ccc(Nc2ncnc3ccc(-c4nnc(C(F)(F)F)o4)cc23)cc1Cl [GW424170] has %Inh smaller than 30%.
met

I'd appreciate it if you could check whether Clc1ccc(-c2cc(-c3c[nH]nc3-c3ccccn3)ccn2)cc1 [GW681251] has %Inh smaller than 30%.
not met

I'd appreciate it if you could check whether O=c1cc(N2CCOCC2)nc2n(Cc3cccc(Cl)c3)ccn12 [GSK2296823] has %Inh smaller than 30%.
met

I'd appreciate it if you could check whether O=C(Nc1ccccc1F)NC1CCN(c2ccnc(Nc3ccc(F)cc3)n2)C1 (stereo not drawn) [GSK1379722] has %Inh smaller than 30%.
met

I'd appreciate it if you could check whether Fc1ccc(-c2ncn(CCCNCc3ccccc3)c2-c2ccncc2)cc1 has %Inh smaller than 30%.
not met

I'd appreciate it if you could check whether Cl.c1ccc(Cn2ccc3cc(Nc4ncnc5ccccc45)ccc32)cc1 [GW275568] has %Inh smaller than 30%.
met

I'd appreciate it if you could check whether CCc1nc(-c2cccc(N(C)S(=O)(=O)c3ccccc3)c2)c(-c2ccnc(Nc3ccc(N4CCN(C(C)=O)CC4)nc3)n2)s1 [GSK1645895] has %Inh smaller than 30%.
met

I'd appreciate it if you could check whether CN1CCC(n2cnc(-c3ccc(F)cc3)c2-c2ccnc(NC3CCNCC3)n2)CC1 [SB-229482] has %Inh smaller than 30%.
not met

I'd appreciate it if you could check whether Nc1nc(-c2ccc3c(N)n[nH]c3c2)cc(N2CCCCC2)n1 [GSK2228768] has %Inh smaller than 30%.
met

I'd appreciate it if you could check whether Cc1ccc(C)c(NC(=O)NCCNc2ccnc(Nc3ccc(F)cc3)n2)c1 [GSK1379878] has %Inh smaller than 30%.
met

I'd appreciate it if you could check whether CCCc1ccc(S(=O)(=O)NC2CCN(c3ccnc(Nc4ccc(OC)cc4)n3)C2)cc1 (stereo not drawn) [GSK1379737] has %Inh smaller than 30%.
met
